assay: MRT in fasted Sprague-Dawley rat at 1 mg/kg, iv by LC-MS/MS analysis; type: ADME, organism-based; conditions: in vivo
MEASURED_METRIC: MRT (min)
Hi! Could you send only the number? It should be in min, unit omitted.

Entry C=C[C@]1(C)C[C@@H](OC(=O)COC(=O)/C=C/c2ccc(N(C)C)cc2)[C@]2(C)[C@H](C)CC[C@]3(CCC(=O)[C@H]32)[C@@H](C)[C@@H]1O — recorded MRT = 42.6

* * *

So I've got a bunch of molecules here, and I need their MIC values.
tested on: Staphylococcus aureus; assay: Antibacterial activity against Staphylococcus aureus ATCC 25923 assessed as bacterial growth inhibition incubated for 24 hrs by CLSI based broth microdilution method; type: functional
Hi! Could you send only the number? It should be in µg/mL, unit omitted.

Entry C=C[C@]1(C)C[C@@H](OC(=O)COC(=O)/C=C/c2cccs2)[C@]2(C)[C@H](C)CC[C@]3(CCC(=O)[C@H]32)[C@@H](C)[C@@H]1O — recorded MIC = 32

Entry C=C[C@]1(C)C[C@@H](OC(=O)COC(=O)/C=C/c2cccnc2)[C@]2(C)[C@H](C)CC[C@]3(CCC(=O)[C@H]32)[C@@H](C)[C@@H]1O — recorded MIC = 2

Entry C=C[C@]1(C)C[C@@H](OC(=O)COC(=O)/C=C/c2ccccc2)[C@]2(C)[C@H](C)CC[C@]3(CCC(=O)[C@H]32)[C@@H](C)[C@@H]1O — recorded MIC = 4

Entry C=C[C@]1(C)C[C@@H](OC(=O)COC(=O)/C=C/c2ccc(-c3ccccc3)cc2)[C@]2(C)[C@H](C)CC[C@]3(CCC(=O)[C@H]32)[C@@H](C)[C@@H]1O — recorded MIC = 64

Entry C=C[C@]1(C)C[C@@H](OC(=O)CSCCN(CC)CC)[C@]2(C)[C@H](C)CC[C@]3(CCC(=O)[C@H]32)[C@@H](C)[C@@H]1O — recorded MIC = 64

Entry C=C[C@]1(C)C[C@@H](OC(=O)COC(=O)/C=C/c2ccco2)[C@]2(C)[C@H](C)CC[C@]3(CCC(=O)[C@H]32)[C@@H](C)[C@@H]1O — recorded MIC = 64

Cited source: ChEMBL document CHEMBL5625206
